- STUDY_TARGET: T1, human apical domain of CD71 (human, UniProt P02786 189-383, limits assumed)
- T1 construct: domain: apical domain
- T1 sequence (P02786 189-383 limits assumed): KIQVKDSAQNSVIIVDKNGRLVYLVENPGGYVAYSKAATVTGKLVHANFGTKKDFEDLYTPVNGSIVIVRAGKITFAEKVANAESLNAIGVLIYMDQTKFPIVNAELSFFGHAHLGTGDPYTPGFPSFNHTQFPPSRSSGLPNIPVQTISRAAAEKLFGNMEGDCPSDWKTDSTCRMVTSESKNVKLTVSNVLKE
- METHOD: primary ELISA; signal over HSA control
PROPERTY_NAME: Apical domain:HSA
Field: value (include unit after the number)

{"BINDER": "CD71-binding FN3 domain SEQ ID NO 384 (designed binder) MLPAPKNLVVSRVTEDSARLSWTAPDAAFDSFEIDYAENRHHGEAIALLVPGSERSYDLTGLKPGTEYIVFIGGVKGGRWSQPLVASFTT", "RECORDED_MEASUREMENT": "57 ratio"}
{"BINDER": "CD71-binding FN3 domain SEQ ID NO 369 (designed binder) MLPAPKNLVVSRVTEDSARLSWTAPDAAFDSFFIGYLEPQPPGEAIVLWVPGSERSYDLTGLKPGTEYNVTIQGVKGGFPSHPLVAKSTT", "RECORDED_MEASUREMENT": "165 ratio"}
{"BINDER": "CD71-binding FN3 domain SEQ ID NO 355 (designed binder) MLPAPKNLVVSRVTEDSARLSWTAPDAAFDSFFIGYLEPQPPGEAIHLYVPGSERSYDLTGLKPGTEYNVTIQGVKGGFPSHPLYADFTT", "RECORDED_MEASUREMENT": "424 ratio"}
{"BINDER": "CD71-binding FN3 domain SEQ ID NO 430 (designed binder) MLPAPKNLVVSRVTEDSARLSWTAPDAAFDSFFIGYLEPQPPGEAIDLWVPGSERSYDLTGLKPGTEYNVTIQGVKGGFPSYPLSASFTT", "RECORDED_MEASUREMENT": "124 ratio"}
{"BINDER": "CD71-binding FN3 domain SEQ ID NO 379 (designed binder) MLPAPKNLVVSRVTEDSARLSWTAPDAAFDSFYIEYWEGYRSGEAIVLTVPGSERSYDLTGLKPGTEYRVHIWGVKGGAVSYPLSAIFTT", "RECORDED_MEASUREMENT": "239 ratio"}
{"BINDER": "CD71-binding FN3 domain SEQ ID NO 366 (designed binder) MLPAPKNLVVSRVTEDSARLSWTAPDAAFDSFFIGYLEPQPPGEAIDLWVPGSERSYDLTGLKPGTEYNVTIQGVKGGFPSNPLKAQFTT", "RECORDED_MEASUREMENT": "313 ratio"}

Give its Apical domain:HSA value. Item: CD71-binding FN3 domain SEQ ID NO 376 (designed binder) MLPAPKNLVVSRVTEDSARLSWTAPDAAFDSFFIGYLEPQPPGEAIALLVPGSERSYDLTGLKPGTEYNVTIQGVKGGFPSNPLEAKFTT
167 ratio

If you can, please state the reported Apical domain:HSA value of CD71-binding FN3 domain SEQ ID NO 347 (designed binder) MLPAPKNLVVSRVTEDSARLSWTAPDAAFDSFFIGYLEPQPPGEAIGLFVPGSERSYDLTGLKPGTEYNVTIQGVKGGFPSEPLKAAFTT .
168 ratio

Can you look up the measured Apical domain:HSA of CD71-binding FN3 domain SEQ ID NO 438 (designed binder) MLPAPKNLVVSRVTEDSARLSWTAPDAAFDSFFIGYLEPQPPGEAIDLWVPGSERSYDLTGLKPGTEYNVTIQGVKGGFPSYPLLAIFTT for me?
161 ratio
